# MEASUREMENT_PROTOCOL: Phase 1 MAD plasma PK in healthy volunteers
# Assay type: in vivo, human
# PARTICULARS: human, plasma, oral; 50 mg QD, Day 14, median (range)
MEASUREMENT_KIND: Tmax (h)
Answers are plain numbers, in h.

q: Any idea what its Tmax is? The compound is "Cn1c(=O)n([C@@H]2CCC(=O)NC2=O)c2cccc(C#CCOC3CCN(C[C@H]4CC[C@H](n5cc(NC(=O)c6cnn7ccc(N8C[C@H]9C[C@@H]8CO9)nc67)c(C(F)F)n5)CC4)CC3)c21"
a: 8

---

# MEASUREMENT_PROTOCOL: clinical
# PARTICULARS: human, in vivo, po, 25 mg
MEASUREMENT_KIND: Tmax (h)
Give bare numbers, in h.

q: Any idea what its Tmax is? The molecule is "Cn1c(=O)n([C@@H]2CCC(=O)NC2=O)c2cccc(C#CCOC3CCN(C[C@H]4CC[C@H](n5cc(NC(=O)c6cnn7ccc(N8C[C@H]9C[C@@H]8CO9)nc67)c(C(F)F)n5)CC4)CC3)c21"
a: 8
